Experiment: Pharmacokinetics in female BALB/c nude mice bearing A375 xenografts, 1 day dosing (PK and PD study): plasma, tumor and brain concentrations, AUC
Type: in vivo
Details: mouse, tumor, po, 100 mg/kg, 100 mg/kg p.o. QD × 1 day; 24 h; read-out: Mean Concentration in Tumor ± SEM
property.name: concentration at 24 h (ng/g)
Just the number please, in ng/g, no unit attached.

Could you share which concentration at 24 h value was measured for CC(C)(C)c1nc(-c2cccc(NS(=O)(=O)c3c(F)cccc3F)c2F)c(-c2ccnc(N)n2)s1 [Dabrafenib, dabrafenib, reference compound] ? 253

* * *

Assay: Pharmacokinetics in female BALB/c nude mice bearing A375 xenografts, 1 day dosing (PK and PD study): plasma, tumor and brain concentrations, AUC
Assay type: in vivo
Conditions: mouse, tumor, po, 2 mg/kg, 2 mg/kg p.o. TID × 1 day; post 3rd dose; 10 h; read-out: Mean Concentration in Tumor ± SEM
property.name: concentration at 10 h (ng/g)
Numeric answer only, unit ng/g assumed.

Requested read-out: concentration at 10 h. Entry: CCN(C)S(=O)(=O)Nc1ccc(F)c(Oc2ccc3ncn([C@H]4COC5(CCN(C6CC7(C6)CN(c6cc8c(cc6F)c(N6CCC(=O)NC6=O)nn8C)C7)CC5)C4)c(=O)c3c2)c1C#N 667

* * *

Biological target: BRAF V600E (Homo sapiens, UniProt P15056+Q96SW2, V600E)
Construct: knock-in of the HiBiT tag to the endogenous BRAF V600E locus; host or cells: A375.10 (A375 clonal line, CRISPR HiBiT knock-in at the endogenous BRAF V600E locus)
Sequence (P15056 whole entry V600E): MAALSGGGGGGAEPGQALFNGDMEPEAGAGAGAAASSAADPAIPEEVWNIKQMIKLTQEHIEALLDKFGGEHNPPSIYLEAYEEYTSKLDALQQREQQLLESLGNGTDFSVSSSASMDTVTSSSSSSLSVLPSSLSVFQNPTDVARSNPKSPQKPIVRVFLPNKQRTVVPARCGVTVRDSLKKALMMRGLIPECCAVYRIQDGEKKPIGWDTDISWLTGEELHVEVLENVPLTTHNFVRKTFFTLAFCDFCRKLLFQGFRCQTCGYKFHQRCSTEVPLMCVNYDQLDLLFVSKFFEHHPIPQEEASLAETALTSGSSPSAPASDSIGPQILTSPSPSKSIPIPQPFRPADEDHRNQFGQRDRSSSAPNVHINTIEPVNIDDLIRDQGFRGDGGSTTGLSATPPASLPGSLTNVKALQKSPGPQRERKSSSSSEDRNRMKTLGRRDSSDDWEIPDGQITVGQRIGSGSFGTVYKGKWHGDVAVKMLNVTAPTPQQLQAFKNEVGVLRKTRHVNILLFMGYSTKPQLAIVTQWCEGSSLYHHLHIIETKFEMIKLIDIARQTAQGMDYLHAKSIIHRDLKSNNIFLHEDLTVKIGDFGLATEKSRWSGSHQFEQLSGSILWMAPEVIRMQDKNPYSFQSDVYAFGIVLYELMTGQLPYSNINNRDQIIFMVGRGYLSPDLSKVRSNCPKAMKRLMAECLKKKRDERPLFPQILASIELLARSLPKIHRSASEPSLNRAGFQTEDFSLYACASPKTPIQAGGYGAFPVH
Sequence (Q96SW2 whole entry): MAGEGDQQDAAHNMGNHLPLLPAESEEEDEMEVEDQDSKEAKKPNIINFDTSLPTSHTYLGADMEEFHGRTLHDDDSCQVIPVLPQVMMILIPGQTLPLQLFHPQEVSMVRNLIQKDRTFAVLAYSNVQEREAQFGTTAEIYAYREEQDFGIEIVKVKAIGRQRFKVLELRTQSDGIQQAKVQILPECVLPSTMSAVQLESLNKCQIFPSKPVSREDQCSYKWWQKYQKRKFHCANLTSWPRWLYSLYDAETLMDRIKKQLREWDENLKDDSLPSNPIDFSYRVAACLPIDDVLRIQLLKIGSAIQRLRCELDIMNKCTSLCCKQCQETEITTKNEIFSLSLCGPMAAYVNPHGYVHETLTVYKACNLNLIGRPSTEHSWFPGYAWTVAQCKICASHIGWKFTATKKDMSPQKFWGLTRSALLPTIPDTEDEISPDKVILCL
Sequence (Q16531 whole entry partner): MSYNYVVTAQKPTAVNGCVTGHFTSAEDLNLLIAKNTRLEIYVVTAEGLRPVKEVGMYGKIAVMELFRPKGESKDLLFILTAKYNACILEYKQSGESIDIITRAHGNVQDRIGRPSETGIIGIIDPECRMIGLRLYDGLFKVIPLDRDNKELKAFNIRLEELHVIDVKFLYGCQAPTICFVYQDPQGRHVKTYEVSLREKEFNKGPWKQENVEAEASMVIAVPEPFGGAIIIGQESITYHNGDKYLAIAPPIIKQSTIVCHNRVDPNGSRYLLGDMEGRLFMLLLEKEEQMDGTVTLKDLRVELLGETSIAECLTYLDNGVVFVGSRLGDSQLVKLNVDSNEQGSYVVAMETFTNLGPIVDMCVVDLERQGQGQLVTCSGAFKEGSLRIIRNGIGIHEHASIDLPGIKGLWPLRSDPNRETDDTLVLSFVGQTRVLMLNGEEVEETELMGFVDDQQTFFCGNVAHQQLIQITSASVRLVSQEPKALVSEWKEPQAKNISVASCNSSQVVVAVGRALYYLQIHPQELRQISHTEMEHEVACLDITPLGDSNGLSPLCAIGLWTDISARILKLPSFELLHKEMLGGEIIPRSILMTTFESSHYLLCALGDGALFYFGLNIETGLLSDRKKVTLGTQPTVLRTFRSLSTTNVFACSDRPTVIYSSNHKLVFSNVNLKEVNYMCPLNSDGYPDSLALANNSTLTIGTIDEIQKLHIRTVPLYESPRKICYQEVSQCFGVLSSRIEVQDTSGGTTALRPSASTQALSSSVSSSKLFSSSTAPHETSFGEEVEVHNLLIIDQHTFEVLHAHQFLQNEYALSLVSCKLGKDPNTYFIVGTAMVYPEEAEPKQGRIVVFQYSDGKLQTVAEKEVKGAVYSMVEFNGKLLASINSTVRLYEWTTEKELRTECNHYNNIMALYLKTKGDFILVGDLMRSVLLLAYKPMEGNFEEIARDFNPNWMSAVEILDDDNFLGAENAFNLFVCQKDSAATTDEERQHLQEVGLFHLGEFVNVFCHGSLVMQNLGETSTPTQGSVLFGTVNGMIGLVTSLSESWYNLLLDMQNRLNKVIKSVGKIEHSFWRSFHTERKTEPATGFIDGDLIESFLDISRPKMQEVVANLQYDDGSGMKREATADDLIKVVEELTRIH
Assay: BRAF V600E HiBiT Degradation Assay
Format: cell-based
Conditions: A375.10 cells, BRAF V600E, 2 hours; residual protein remaining; read-out: HiBiT-Degradation A375.10 BRAF 2 hours Emax
Below is a list of entries, each paired with its recorded Emax value.

Here is how some compounds turned out for Emax.
- compound: "Cn1nc(N2CCC(=O)NC2=O)c2cc(F)c([C@H]3CC[C@@H](N4CCC5(CC4)CC(c4cnc6ccc(Oc7c(F)ccc(NS(=O)(=O)N8CC[C@@H](F)C8)c7C#N)cc6n4)C5)CC3)cc21 (single isomer, unassigned) [Compound 268]"
  assayed.system: "BRAF V600E (Homo sapiens, UniProt P15056+Q96SW2, V600E)"
  obs.value: "< 50%"
- compound: "CO[C@H]1CCN(S(=O)(=O)Nc2ccc(F)c(Oc3ccc4ncc(C5CC6(CCN(C7CC8(C7)CN(c7cc9c(cc7F)c(N7CCC(=O)NC7=O)nn9C)C8)CC6)C5)nc4c3)c2C#N)C1 (some centres unmarked) [Compound 279]"
  assayed.system: "BRAF V600E (Homo sapiens, UniProt P15056+Q96SW2, V600E)"
  obs.value: "50 to 90%"
- compound: "N#Cc1c(NS(=O)(=O)N2CC[C@@H](F)C2)ccc(F)c1Oc1ccc2ncn(C3COC4(CCN(C5CCC(c6ccc(NC7CCC(=O)NC7=O)cc6F)CC5)CC4)C3)c(=O)c2c1 (single isomer, unassigned) [Compound 143]"
  assayed.system: "BRAF V600E (Homo sapiens, UniProt P15056+Q96SW2, V600E)"
  obs.value: "< 50%"
- compound: "CCN(C)S(=O)(=O)Nc1ccc(F)c(Oc2ccc3ncn(C4CC5(C4)CN(C4CC6(CCN(c7cc8c(cc7F)c(N7CCC(=O)NC7=O)nn8C)CC6)C4)C5)c(=O)c3c2)c1C#N (centres unmarked) [Compound 314]"
  assayed.system: "BRAF V600E (Homo sapiens, UniProt P15056+Q96SW2, V600E)"
  obs.value: "< 50%"

Shifting focus to the compound that follows.
Which Emax reading was recorded for the compound CN(CCO)S(=O)(=O)Nc1ccc(F)c(Oc2ccc3ncn(C4CC5(CCN(C6CC7(C6)CN(c6cc8c(cc6F)c(N6CCC(=O)NC6=O)nn8C)C7)CC5)C4)c(=O)c3c2)c1C#N (centres unmarked) [Compound 151] ? 50 to 90%
